Test system: 60 different human tumor cell lines
Assay: NCI Development Therapeutics Program 60 cell line screen, one dose
Assay type: cell-based
Details: Non-small Cell Lung Cancer, NCI-H23
parameter: Growth Percent (%)

• C[C@]12CCc3nc(Nc4ccc(O)cc4)sc3C1=CC[C@@H]1[C@@H]2CC[C@]2(C)C(=O)CC[C@@H]12 [IIa.35] = 70.16
• C[C@]12CCc3sc(NCCc4ccccc4)nc3C1=CC[C@@H]1[C@@H]2CC[C@]2(C)C(=O)CC[C@@H]12 [IIa.2] = 66.61
• C[C@]12CCc3nc(N)sc3C1=CC[C@@H]1[C@@H]2CC[C@]2(C)C(=NNC(N)=O)CC[C@@H]12 [IVb.1] = −44.30
• C[C@]12CC[C@H]3[C@@H](CC=C4c5sc(-c6ccc(O)cc6)nc5CC[C@@]43C)[C@@H]1CC[C@@H]2O [III.5] = 74.72
